Test system: human neutrophils
Test: Superoxide generation in human neutrophils (cytochrome c reduction)
Type: cell-based
Settings: peptide 10 μM; cytochrome c reduction
Where no end group is shown, it is not given here.
Is O^2− (nmol/10^6 cells), superoxide generation at least 40 nmol/10^6 cells? Then Criterion met. If not, Criterion not met.

Tell me whether O^2− (nmol/10^6 cells), superoxide generation is at least 40 nmol/10^6 cells here: WKYMVW-NH2 [WKYMVW-NH2, Trp-Lys-Tyr-Met-Val-Trp-NH2] Criterion met

hey, is O^2− (nmol/10^6 cells), superoxide generation for this one >= 40 nmol/10^6 cells? Trp-Lys-Tyr-Met-(Phe/Trp)-D-Met-NH2 [WKYM(F/W)m-NH2] Criterion met

Does O^2− (nmol/10^6 cells), superoxide generation meet or surpass 40 nmol/10^6 cells for WKYMVR-NH2 [WKYMVR-NH2, Trp-Lys-Tyr-Met-Val-Arg-NH2] ? Criterion met

Would you say WKYMVE-NH2 [WKYMVE-NH2, Trp-Lys-Tyr-Met-Val-Glu-NH2] shows O^2− (nmol/10^6 cells), superoxide generation at minimum 40 nmol/10^6 cells? Criterion not met

Exam item: decide whether the reported O^2− (nmol/10^6 cells), superoxide generation for WKYMVV-NH2 [WKYMVV-NH2, Trp-Lys-Tyr-Met-Val-Val-NH2] is at least 40 nmol/10^6 cells. Criterion not met

Reported O^2− (nmol/10^6 cells), superoxide generation reaches at least 40 nmol/10^6 cells for WKYMV-NH2 [WKYMV-NH2, Trp-Lys-Tyr-Met-Val-NH2] ? Criterion not met

Is O^2− (nmol/10^6 cells), superoxide generation at least 40 nmol/10^6 cells? Consider WKYMVG-NH2 [WKYMVG-NH2, Trp-Lys-Tyr-Met-Val-Gly-NH2] Criterion not met

====

Target: FPRL1 (Homo sapiens, UniProt P25090)
Construct: expressed in transfected cells; host or cells: RBL-2H3 (rat basophilic leukemia) cells, G418-selected
Sequence (P25090 whole entry): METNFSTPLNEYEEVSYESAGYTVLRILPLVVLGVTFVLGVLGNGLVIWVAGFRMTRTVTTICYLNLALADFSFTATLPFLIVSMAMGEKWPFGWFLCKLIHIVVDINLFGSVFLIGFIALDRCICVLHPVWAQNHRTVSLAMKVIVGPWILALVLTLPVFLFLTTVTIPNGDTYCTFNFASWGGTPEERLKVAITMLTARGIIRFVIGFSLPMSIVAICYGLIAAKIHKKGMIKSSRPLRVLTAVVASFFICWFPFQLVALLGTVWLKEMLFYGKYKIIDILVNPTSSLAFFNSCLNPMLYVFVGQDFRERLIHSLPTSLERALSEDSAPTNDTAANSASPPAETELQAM
Test: [Ca2+]i increase in FPRL1-expressing RBL-2H3 cells (fura-2)
Type: cell-based
Where a SMILES comes first, the peptide text is derived from it. [ ]: non-standard residue; d: D form.
READOUT KIND: [Ca^2+]i increasing activity

Entry under review: CSCC[C@H](NC(=O)[C@H](Cc1ccc(O)cc1)NC(=O)[C@H](CCCNC(=N)N)NC(=O)[C@@H](N)Cc1c[nH]c2ccccc12)C(=O)N[C@H](C(=O)N[C@H](CCSC)C(N)=O)C(C)C [WRYMVm-NH2, Trp-Arg-Tyr-Met-Val-D-Met-NH2] (H-WRYMV[dM]-NH2; N-terminus assumed) . Reported [Ca^2+]i increasing activity? higher affinity to FPRL1

Quick one: [Ca^2+]i increasing activity for CSCC[C@H](NC(=O)[C@H](Cc1ccc(O)cc1)NC(=O)[C@H](CCCCN)NC(=O)[C@@H](N)Cc1c[nH]c2ccccc12)C(=O)N[C@@H](Cc1ccc(O)cc1)C(=O)N[C@H](CCSC)C(N)=O [WKYMYm-NH2, Trp-Lys-Tyr-Met-Tyr-D-Met-NH2] (H-WKYMY[dM]-NH2; N-terminus assumed) ? higher affinity to FPRL1

Bench note: what [Ca^2+]i increasing activity did CSCC[C@H](NC(=O)[C@H](Cc1c[nH]c2ccccc12)NC(=O)[C@H](CCCCN)NC(=O)[C@@H](N)Cc1c[nH]c2ccccc12)C(=O)N[C@H](C(=O)N[C@H](CCSC)C(N)=O)C(C)C [WKWMVm-NH2, Trp-Lys-Trp-Met-Val-D-Met-NH2] (H-WKWMV[dM]-NH2; N-terminus assumed) show? higher affinity to FPRL1
